- SYSTEM UNDER TEST: human β-Secretase (sBACE-Fc) (Homo sapiens, UniProt P56817)
- Construct: The soluble part of the human β-Secretase (AA 1-AA 460) was cloned; Fc domain of IgG1 (C); made in house
- Sequence (P56817 22-460): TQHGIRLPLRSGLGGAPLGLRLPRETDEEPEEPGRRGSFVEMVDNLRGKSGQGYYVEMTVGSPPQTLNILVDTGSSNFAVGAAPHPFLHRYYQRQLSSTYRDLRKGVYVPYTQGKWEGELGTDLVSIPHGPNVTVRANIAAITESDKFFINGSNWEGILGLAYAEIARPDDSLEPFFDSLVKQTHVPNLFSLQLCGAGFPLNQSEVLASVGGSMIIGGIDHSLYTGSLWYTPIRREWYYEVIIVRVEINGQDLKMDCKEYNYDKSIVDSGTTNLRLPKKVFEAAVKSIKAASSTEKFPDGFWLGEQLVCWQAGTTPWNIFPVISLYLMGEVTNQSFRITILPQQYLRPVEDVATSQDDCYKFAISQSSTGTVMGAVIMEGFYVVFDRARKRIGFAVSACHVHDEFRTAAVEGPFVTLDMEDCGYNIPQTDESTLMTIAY
- TEST: TR-FRET assay (β-secretase enzyme, substrate (Europium)[…](Qsy7))
- Type: biochemical
Structures can show the parent of a compound that is named as a salt.
QUANTITY NAME: IC50 (µM)
Kindly provide the numeric value in µM only, without the unit symbol.

Per the records, this compound ( COc1cccc(-c2cccc(C3(c4ccncc4)N=C(N)N4CCCN=C43)c2)c1 (centres unmarked) ) has IC50 equal to 0.072

Sure, the documented IC50 for N#Cc1cccc(-c2cccc(C3(c4ccncc4)N=C(N)N4CCCN=C43)c2)c1 (centres unmarked) [Example 13, hydrochloride] is 0.353

Value of IC50 reported for the compound NC1=NC(c2ccncc2)(c2cccc(-c3cc(Cl)ccc3F)c2)C2=NCCCN12 (centres unmarked) is 0.079

Per the record, NC1=NC(c2ccncc2)(c2ccc(F)c(-c3cccnc3F)c2)C2=NCC(F)(F)CN12 (centres unmarked) [Example 81, acetate] has IC50 of 0.049

Reported IC50 for NC1=NC(c2cccc(-c3cncnc3)c2)(c2ccncc2F)C2=NCC(F)(F)CN12 (centres unmarked) was 0.44

In plain terms, NC1=NC(c2ccoc2)(c2cccc(-c3cccnc3F)c2)C2=NCCCN12 (centres unmarked) has a documented IC50 of 0.656

Entry Cc1nc(C2(c3cccc(-c4cc(Cl)cc(Cl)c4)c3)N=C(N)N3CCCN=C32)cs1 (centres unmarked) [Example 57, acetate] — recorded IC50 = 3.79

// sample NC1=NC(c2ccncc2)(c2cccc(-c3cccnc3F)c2)C2=NCC(F)(F)CN12 (centres unmarked) , its IC50 was 0.059

* * *

Record: IC50 reported on human β-Secretase (sBACE-Fc) (Homo sapiens, UniProt P56817).
Reply numerically in nM, unit not repeated.

Consider NC1=NC(c2ccsc2)(c2cccc(-c3cc(Cl)cc(Cl)c3)c2)C2=NCCCN12 (centres unmarked) [Example 63, acetate] . Its measured IC50 is 68

Lab note: measured IC50 of NC1=NC(c2ccncc2)(c2cccc(-c3cc(Cl)ccc3Cl)c2)C2=NCCCN12 (centres unmarked) [Example 36] was 267

Recorded IC50 (compound CS(=O)(=O)c1cccc(-c2cccc(C3(c4ccncc4)N=C(N)N4CCCN=C43)c2)c1 (centres unmarked) [Example 25] ): 5080

response.value for NC1=NC(c2ccoc2)(c2cccc(-c3cc(Cl)cc(Cl)c3)c2)C2=NCCCN12 (centres unmarked) [Example 43, acetate] (field: IC50) = 152

Consider COc1cccc(-c2cccc(C3(c4ccncc4)N=C(N)N4CC(F)(F)CN=C43)c2)c1 (centres unmarked) [Example 72] . Its measured IC50 is 68

IC50 reported for this compound COc1cccc(-c2cc(C3(c4ccncc4)N=C(N)N4CC(F)(F)CN=C43)ccc2F)c1F (centres unmarked) [Example 82, acetate] : 42

compound NC1=NC(c2ccncc2)(c2cccc(-c3cc(Cl)cnc3F)c2)C2=NCCCN12 (centres unmarked) [Example 29] , IC50 observed: 87

The compound listed as NC1=NC(c2cccc(-c3cc(Cl)cc(Cl)c3)c2)(c2ccco2)C2=NCCCN12 (centres unmarked) [Example 50, acetate] shows IC50 equal to 74
